Assay: pKa value was determined
Type: physicochemical
measured_parameter: pKa

Guide cases for pKa, answers given:
>>> result("OC[C@H]1NC[C@H](O)[C@@H](O)[C@@H]1O")
"~6.5"
>>> result("CCC(O)[C@H]1NC[C@H](O)[C@@H](O)[C@@H]1O (stereo partly drawn)")
"~6.5"

# evaluate next
Entry OC1CCN2C[C@H](O)[C@@H](O)[C@H](O)C12 (stereo partly drawn) needs its pKa filled in; supply it.
~6.5
